System: Caco-2 monolayers
test summary: Transport and metabolism of HLE constituents through Caco-2 monolayers
Format: in vitro ADME
assay conditions: apical to basolateral, 24 h incubation of HLE with Caco-2, based on the peak area ratio
observation type: Transport Efficiency (%)
One number for each entry, in %.

Solved cases below.
# molecule, observation type, value
records = [
    ("CC(C)=CCC1=C(O)C(O)(CC=C(C)C)C(=O)C(C(=O)CCC(C)C)=C1O (stereo not drawn) [Peak M17, prehumulone]", "Transport Efficiency (%)", 4.3),
    ("CC(C)=CCC1=C(O)C(O)(CC=C(C)C)C(=O)C(C(=O)C(C)C)=C1O (stereo not drawn) [Peak M14, cohumulone]", "Transport Efficiency (%)", 9.5),
    ("CC(C)=CCC(=O)[C@@]1(O)C(=O)C(C(=O)C(C)C)=C(O)[C@@]1(O)CC=C(C)C [Peak M10, cohumulinone]", "Transport Efficiency (%)", 9),
]

Return reported Transport Efficiency (%) for target or system Caco-2 monolayers, item COc1cc(O)c(CC=C(C)C)c(O)c1C(=O)/C=C/c1ccc(O)cc1 [Peak M13, xanthohumol] .
3.5
